Numbers sourced from PubChem BioAssay (NCATS).

experiment: qHTS assay for small molecule antagonists of retinoid X receptor alpha signaling (AID 588546); details: HEK293T RXRa-UAS-bla, beta-lactamase ratio, antagonist mode; measured here: W530 green channel, cytotoxicity proxy;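 also: cells stimulated with 9-cis-retinoic acid as agonist; % is scaled to controls: 0 for no effect and ±100 for the full control effect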
Inconclusive results are not listed.
# key: entry, value: max response
Value expressed in %; do not type the unit.

Example entries and their recorded answers appear below.
INSERT INTO measurements (compound, measurement_type, units_symbol, number) VALUES
  ('N#CC(CCc1ccc(Cl)cc1)(Cn1cncn1)c1ccccc1 (stereo unspecified)', 'max response', '%', 6.94),
  ('CCCCN(CC)c1c([N+](=O)[O-])cc(C(F)(F)F)cc1[N+](=O)[O-]', 'max response', '%', -9.26),
  ('CNC(=O)Oc1cccc(N=CN(C)C)c1', 'max response', '%', -11.7),
  ('Clc1ccc(C2(Cn3cncn3)CC(Br)CO2)c(Cl)c1 (stereo unspecified)', 'max response', '%', -1.33),
  ('Nc1cnn(-c2ccccc2)c(=O)c1Cl', 'max response', '%', -1.68);

Turning to the following compound.
query: Request the reported max response associated with CCOP(=S)(OCC)SC(CCl)N1C(=O)c2ccccc2C1=O (stereo unspecified)
result: 3.14
